Exercise: for every item that follows, state its recorded shrunken log2 fold change.
# Test system: Escherichia coli TOP10
# assay-overview: shrunken log2 fold change of peptide-encoding DNA abundance (4.5 h post-induction vs induction); higher = less antimicrobial activity (less host growth inhibition)
# recorded-conditions: time post-induction: 4.5 h; library: site-saturation at positions 5, 18, 19, 20
Numbers only.

RRIRARPPRLPRPRPRPKAPPRP = 0.56
RRIRFRPPRLPRPRPRPAPRPRP = 0.84
RRIRSRPPRLPRPRPRPVERPRP = 0.187
RRIRTRPPRLPRPRPRPGWRPRP = 0.69
RRIRYRPPRLPRPRPRPALYPRP = -0.284
RRIRKRPPRLPRPRPRPGEVPRP = 0.268
RRIRNRPPRLPRPRPRPWPHPRP = -0.0312
RRIRDRPPRLPRPRPRPYTGPRP = -1.03

Would you mind listing shrunken log2 fold change for each of the following sequences?
1. RRIRPRPPRLPRPRPRPEHCPRP
2. RRIRPRPPRLPRPRPRPIQEPRP
3. RRIRTRPPRLPRPRPRPRYHPRP
4. RRIRKRPPRLPRPRPRPNLHPRP
5. RRIRPRPPRLPRPRPRPRDEPRP
6. RRIRTRPPRLPRPRPRPHMHPRP
7. RRIRDRPPRLPRPRPRPYYMPRP

1: -0.034; 2: -0.019; 3: -0.573; 4: -0.184; 5: 0.0975; 6: -0.543; 7: -0.399

---

# Tested on: Escherichia coli TOP10
# assay-overview: shrunken log2 fold change of peptide-encoding DNA abundance (4.5 h post-induction vs induction); higher = less antimicrobial activity (less host growth inhibition)
# recorded-conditions: time post-induction: 4.5 h; library: site-saturation at positions 5, 18, 19, 20
Exercise: for every item that follows, state its recorded shrunken log2 fold change.
Answers are plain numbers.

RRIRCRPPRLPRPRPRPWSDPRP = -0.324
RRIRIRPPRLPRPRPRPQFYPRP = -0.945
RRIRFRPPRLPRPRPRPLWLPRP = -0.0557
RRIRARPPRLPRPRPRPRHPPRP = 0.383
RRIRRRPPRLPRPRPRPLEQPRP = 0.166
RRIRKRPPRLPRPRPRPTGDPRP = 0.727
RRIRDRPPRLPRPRPRPYYRPRP = -0.163
RRIRNRPPRLPRPRPRPQCLPRP = 0.197
RRIRKRPPRLPRPRPRPWPRPRP = 0.264
RRIRPRPPRLPRPRPRPDWKPRP = 0.286

Would you mind listing shrunken log2 fold change for each of the following sequences?
1. RRIRCRPPRLPRPRPRPEMWPRP
2. RRIRWRPPRLPRPRPRPLDRPRP
3. RRIRNRPPRLPRPRPRPQIKPRP
4. RRIRMRPPRLPRPRPRPPARPRP
5. RRIRCRPPRLPRPRPRPVAHPRP
6. RRIRDRPPRLPRPRPRPLQEPRP

[0.166, 0.146, -0.479, 1.4, -0.277, 0.223]

---

# System: Escherichia coli TOP10;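 note: peptides expressed intracellularly from a pBAD plasmid library in pooled LB shake-flask culture, induced with 0.3% L-arabinose, DNA abundance read by NGS, three biological replicates, DESeq2 with apeglm shrinkage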
# assay-overview: shrunken log2 fold change of peptide-encoding DNA abundance (4.5 h post-induction vs induction); higher = less antimicrobial activity (less host growth inhibition)
# recorded-conditions: time post-induction: 4.5 h; library: site-saturation at positions 5, 18, 19, 20
Exercise: for every item that follows, state its recorded shrunken log2 fold change.
Give bare numbers.

RRIRIRPPRLPRPRPRPYEIPRP = -0.811
RRIRPRPPRLPRPRPRPTPPPRP = 0.477
RRIRMRPPRLPRPRPRPSRKPRP = 0.148

Would you mind listing shrunken log2 fold change for each of the following sequences?
1. RRIRMRPPRLPRPRPRPRHYPRP
2. RRIRMRPPRLPRPRPRPNQVPRP
3. RRIRRRPPRLPRPRPRPCKTPRP
4. RRIRNRPPRLPRPRPRPFKGPRP
5. RRIRGRPPRLPRPRPRPCRDPRP
6. RRIRLRPPRLPRPRPRPTCGPRP

-0.0487
-0.217
-0.103
-0.0902
0.128
0.281
